target: hERG current (Homo sapiens, UniProt Q12809); assay: In vitro hERG assay
Sequence (Q12809 whole entry): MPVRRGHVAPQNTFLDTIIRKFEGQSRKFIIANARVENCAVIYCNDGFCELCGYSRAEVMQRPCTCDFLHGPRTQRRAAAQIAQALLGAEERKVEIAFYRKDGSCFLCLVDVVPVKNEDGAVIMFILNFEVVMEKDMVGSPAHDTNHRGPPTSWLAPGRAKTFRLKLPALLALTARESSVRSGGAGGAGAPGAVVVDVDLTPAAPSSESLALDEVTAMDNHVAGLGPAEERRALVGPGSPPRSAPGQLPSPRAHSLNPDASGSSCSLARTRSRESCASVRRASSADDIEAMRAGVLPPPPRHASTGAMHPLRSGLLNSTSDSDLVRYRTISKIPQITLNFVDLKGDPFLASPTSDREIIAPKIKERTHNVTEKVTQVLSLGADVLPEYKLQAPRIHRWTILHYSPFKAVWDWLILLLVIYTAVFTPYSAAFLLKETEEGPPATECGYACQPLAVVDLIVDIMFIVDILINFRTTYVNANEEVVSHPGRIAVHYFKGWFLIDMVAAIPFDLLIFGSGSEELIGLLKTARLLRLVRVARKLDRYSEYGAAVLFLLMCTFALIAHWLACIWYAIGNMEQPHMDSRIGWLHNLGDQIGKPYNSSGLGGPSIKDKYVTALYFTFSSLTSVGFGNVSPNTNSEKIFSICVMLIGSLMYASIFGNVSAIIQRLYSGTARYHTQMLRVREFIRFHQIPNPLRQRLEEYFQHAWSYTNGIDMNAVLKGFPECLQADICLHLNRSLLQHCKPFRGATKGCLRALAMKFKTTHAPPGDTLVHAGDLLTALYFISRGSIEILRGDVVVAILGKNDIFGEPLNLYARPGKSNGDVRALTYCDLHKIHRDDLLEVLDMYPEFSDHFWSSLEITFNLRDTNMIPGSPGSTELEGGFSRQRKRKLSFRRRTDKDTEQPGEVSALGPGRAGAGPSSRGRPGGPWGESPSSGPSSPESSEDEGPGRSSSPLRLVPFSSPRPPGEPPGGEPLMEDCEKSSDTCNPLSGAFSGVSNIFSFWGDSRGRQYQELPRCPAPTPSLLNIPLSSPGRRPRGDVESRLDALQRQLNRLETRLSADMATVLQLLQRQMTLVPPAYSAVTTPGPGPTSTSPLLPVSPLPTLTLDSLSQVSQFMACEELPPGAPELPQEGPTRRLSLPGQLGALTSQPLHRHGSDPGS
assay.metric: IC50

Data request: For Cc1ccc(COC(=O)N2CC[C@H](CNc3ncccn3)[C@H](F)C2)cc1 [Form II] , what is its reported IC50?
Data returned: ~13 µM

###

biological target: NMDA-GluN2B receptors, rhesus monkey frontal cortex homogenate (Macaca mulatta); construct: frontal cortex homogenate (dog and rhesus monkey); from tissue; host or cells: rhesus monkey frontal cortex homogenate; assay: Radioligand binding, rhesus frontal cortex homogenate; conditions: room temp., geometric mean
Sequence (F6T8S6 29-1484): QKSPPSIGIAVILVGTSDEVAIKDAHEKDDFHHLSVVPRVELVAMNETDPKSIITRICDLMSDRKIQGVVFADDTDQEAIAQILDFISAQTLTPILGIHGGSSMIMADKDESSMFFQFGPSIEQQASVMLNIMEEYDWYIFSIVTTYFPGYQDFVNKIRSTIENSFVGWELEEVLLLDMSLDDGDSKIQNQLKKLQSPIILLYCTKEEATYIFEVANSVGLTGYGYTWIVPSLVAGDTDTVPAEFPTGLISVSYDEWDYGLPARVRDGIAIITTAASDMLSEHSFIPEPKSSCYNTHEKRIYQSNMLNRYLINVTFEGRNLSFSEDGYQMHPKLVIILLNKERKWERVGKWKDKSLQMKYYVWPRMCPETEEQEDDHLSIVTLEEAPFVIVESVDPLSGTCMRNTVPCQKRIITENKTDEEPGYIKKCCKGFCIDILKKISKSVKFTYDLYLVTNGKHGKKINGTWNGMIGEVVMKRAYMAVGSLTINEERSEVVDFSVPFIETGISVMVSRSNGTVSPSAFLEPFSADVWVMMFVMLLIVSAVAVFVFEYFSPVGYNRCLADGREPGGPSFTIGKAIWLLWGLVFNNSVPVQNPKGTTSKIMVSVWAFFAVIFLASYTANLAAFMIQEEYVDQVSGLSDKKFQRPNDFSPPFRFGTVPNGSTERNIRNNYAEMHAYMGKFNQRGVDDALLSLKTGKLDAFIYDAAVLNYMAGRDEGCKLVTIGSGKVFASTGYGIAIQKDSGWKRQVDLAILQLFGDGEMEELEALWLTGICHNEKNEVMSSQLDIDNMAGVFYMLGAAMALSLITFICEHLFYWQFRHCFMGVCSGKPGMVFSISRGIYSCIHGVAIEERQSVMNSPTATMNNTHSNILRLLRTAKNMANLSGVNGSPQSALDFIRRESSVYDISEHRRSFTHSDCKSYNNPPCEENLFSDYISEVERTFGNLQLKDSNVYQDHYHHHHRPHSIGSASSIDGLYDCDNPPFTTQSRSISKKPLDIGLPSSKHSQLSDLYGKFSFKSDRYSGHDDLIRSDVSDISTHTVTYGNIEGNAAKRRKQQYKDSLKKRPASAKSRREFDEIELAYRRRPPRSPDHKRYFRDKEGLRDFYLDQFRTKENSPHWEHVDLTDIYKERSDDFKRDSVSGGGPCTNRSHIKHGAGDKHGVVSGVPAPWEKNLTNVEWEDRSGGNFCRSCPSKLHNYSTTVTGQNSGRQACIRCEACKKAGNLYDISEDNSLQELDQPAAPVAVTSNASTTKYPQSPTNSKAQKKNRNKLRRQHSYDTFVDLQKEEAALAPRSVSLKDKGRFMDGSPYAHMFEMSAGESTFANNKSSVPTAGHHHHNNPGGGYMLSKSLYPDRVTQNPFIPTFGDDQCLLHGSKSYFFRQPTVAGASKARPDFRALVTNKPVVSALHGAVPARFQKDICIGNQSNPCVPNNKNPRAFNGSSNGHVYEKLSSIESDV
assay.metric: Ki (nM)
Use nM as the unit, but write only the number.

Data request: For Cc1ccc(COC(=O)N2CC[C@H](CNc3ncccn3)[C@H](F)C2)cc1 [Form II] , what is its reported Ki?
Data returned: 3.1

###

Experiment: Acute depression model, forced swim test
Assay type: in vivo, rat
Settings: male, Sprague-Dawley, rat, plasma, 10 mg/kg; read-out: plasma level at time of sampling
Description: […] Each Forced Swim chamber was constructed of clear acrylic (height, 40 cm; diameter, 20.3 cm). […] Immobility, climbing, and swimming behaviors were recorded every 5 s for a total of 60 counts per subject. […] Blood was collected at the completion of swim test procedures and plasma was analyzed for Form II concentrations.
assay.metric: concentration at 50 min

Data request: For Cc1ccc(COC(=O)N2CC[C@H](CNc3ncccn3)[C@H](F)C2)cc1 [Form II] , what is its reported concentration at 50 min?
Data returned: ~4.7 µM

###

experiment: Single-dose pharmacokinetics in monkeys (oral and IV); type: in vivo; conditions: male, rhesus, rhesus monkey, plasma; PO 15 mg/kg, mean (S.D.)
assay.metric: Cmax (µM)
Use µM as the unit, but write only the number.

Data request: For Cc1ccc(COC(=O)N2CC[C@H](CNc3ncccn3)[C@H](F)C2)cc1 [Form II] , what is its reported Cmax?
Data returned: 3.6

###

Experiment: Repeated once-daily oral dosing with food (Days 1-7) in healthy subjects, PK and PD
Format: in vivo, human
Settings: both sexes, human, plasma, oral, 12 mg, young subjects, 12 mg, Day 7; read-out: tmax, Mean (SD)
Method: A randomized, double-blind, placebo-controlled, parallel-dose group in-patient study is conducted to investigate the pharmacodynamic (PD) effects of crystalline Form II of Compound (I) in healthy subjects. The study is designed as a three-part, sequential study. […]
assay.metric: Tmax (h)
Use h as the unit, but write only the number.

Data request: For Cc1ccc(COC(=O)N2CC[C@H](CNc3ncccn3)[C@H](F)C2)cc1 [Form II] , what is its reported Tmax?
Data returned: 2.42

###

experiment: Repeated once-daily oral dosing with food (Days 1-7) in healthy subjects, PK and PD; assay type: in vivo, human; conditions: both sexes, human, plasma, oral, 12 mg, elderly, 12 mg, Day 7; read-out: AUClast, Mean (SD)
assay.metric: AUC(0-t) (ng·h/mL)
Use ng·h/mL as the unit, but write only the number.

Data request: For Cc1ccc(COC(=O)N2CC[C@H](CNc3ncccn3)[C@H](F)C2)cc1 [Form II] , what is its reported AUC(0-t)?
Data returned: 9140

###

assay: Human pharmacokinetic study, single ascending oral doses; format: in vivo; settings: male, human, plasma, oral, 2 mg, fasted, mean
assay.metric: AUC(0-inf) (ng·h/mL)
Use ng·h/mL as the unit, but write only the number.

Data request: For Cc1ccc(COC(=O)N2CC[C@H](CNc3ncccn3)[C@H](F)C2)cc1 [Form II] , what is its reported AUC(0-inf)?
Data returned: 493
